This section presents log10 IC50 values reported for Estrogen receptor beta (Homo sapiens, UniProt Q92731) in the literature.
outcome measure: log10 IC50 (log10 of the value in µM)

[[record]]
molecule = "CCOC(=O)CC(=O)c1ccc(C#CCCCC[C@@H]2Cc3cc(O)ccc3[C@H]3CC[C@]4(C)[C@@H](O)CC[C@H]4[C@H]23)cc1"
outcome_measure = "log10 IC50"
test_result = -0.73

[[record]]
molecule = "OCCOc1ccc(C2Oc3cc(O)ccc3C3=C2c2ccc(O)cc2OCC3)cc1 (stereo not given)"
outcome_measure = "log10 IC50"
test_result = -1.96

[[record]]
molecule = "Oc1ccc(-c2ccc3c(Br)c(O)ccc3n2)cc1"
outcome_measure = "log10 IC50"
test_result = -1.06

[[record]]
molecule = "CNCCOc1ccc(N2Nc3c(c(=O)oc4cc(O)ccc34)-c3ccc(O)cc32)cc1"
outcome_measure = "log10 IC50"
test_result = -1.54

[[record]]
molecule = "Oc1cccc(-c2ccc3ccc(O)cc3c2)c1"
outcome_measure = "log10 IC50"
test_result = -0.25

[[record]]
molecule = "Oc1ccc2nc(-c3cc(F)c(O)c(F)c3)cc(Br)c2c1"
outcome_measure = "log10 IC50"
test_result = -1.44

[[record]]
molecule = "CCCC12CCC(=O)C(Br)=C1c1ccc3nn[nH]c3c1C2 (stereo not given)"
outcome_measure = "log10 IC50"
test_result = -1.37

[[record]]
molecule = "Cc1cc(O)ccc1-c1ccccc1"
outcome_measure = "log10 IC50"
test_result = 0.60

[[record]]
molecule = "Oc1ccc([C@H]2Sc3cc(O)ccc3O[C@H]2c2ccc(OCCN3C[C@H]4CCCC[C@H]4C3)cc2)cc1"
outcome_measure = "log10 IC50"
test_result = -1.48

